observation_type: melting point

Use these answered entries as a reference point.
Cc1ccnc2c1N=C(Cl)c1cccnc1N2C1CC1 : 196 to 198 °C
CNCCOc1ccc2ccc(NC(=O)c3ccc(OC)cc3)nc2n1 : 146 °C
CCc1nc2c(N)nc3ccccc3c2n1CCCCSC : 183 to 186 °C
CCCCc1c2c(nn1C)c(N)nc1ccccc12 : 202 to 203 °C
Nc1ccc(C(=O)OCc2ccccc2)c(F)n1 : 92 to 94 °C

Reported melting point of `Cc1noc(NS(=O)(=O)c2ccsc2C(=O)Nc2ccccc2)c1C` : 176 °C

Reported melting point of CCOC(=O)CC(C)c1ccc(C2COc3c(C)c(C)c(NC(=O)CC(C)(C)C)c(C)c32)cc1 (stereo unspecified) : 100 to 101 °C

Reported melting point of `c1c(NC2CCCC2)nc(NC2CCCC2)nc1N1CCNCC1` : 142 to 148 °C

Reported melting point of CC(C)P1(=O)NCc2ccccc21 (stereo unspecified) : 149 to 151 °C

Reported melting point of `CCc1c(O)n[nH]c1C` : 232 to 234 °C

Reported melting point of `Cc1ccc(Sc2nc(F)c(C#N)cc2F)cc1` : 120 to 121 °C
